Recorded inhibition at 3 µM by entry
assayed.target: hERG (Homo sapiens (Human), UniProt Q12809)
Sequence (Q12809 whole entry): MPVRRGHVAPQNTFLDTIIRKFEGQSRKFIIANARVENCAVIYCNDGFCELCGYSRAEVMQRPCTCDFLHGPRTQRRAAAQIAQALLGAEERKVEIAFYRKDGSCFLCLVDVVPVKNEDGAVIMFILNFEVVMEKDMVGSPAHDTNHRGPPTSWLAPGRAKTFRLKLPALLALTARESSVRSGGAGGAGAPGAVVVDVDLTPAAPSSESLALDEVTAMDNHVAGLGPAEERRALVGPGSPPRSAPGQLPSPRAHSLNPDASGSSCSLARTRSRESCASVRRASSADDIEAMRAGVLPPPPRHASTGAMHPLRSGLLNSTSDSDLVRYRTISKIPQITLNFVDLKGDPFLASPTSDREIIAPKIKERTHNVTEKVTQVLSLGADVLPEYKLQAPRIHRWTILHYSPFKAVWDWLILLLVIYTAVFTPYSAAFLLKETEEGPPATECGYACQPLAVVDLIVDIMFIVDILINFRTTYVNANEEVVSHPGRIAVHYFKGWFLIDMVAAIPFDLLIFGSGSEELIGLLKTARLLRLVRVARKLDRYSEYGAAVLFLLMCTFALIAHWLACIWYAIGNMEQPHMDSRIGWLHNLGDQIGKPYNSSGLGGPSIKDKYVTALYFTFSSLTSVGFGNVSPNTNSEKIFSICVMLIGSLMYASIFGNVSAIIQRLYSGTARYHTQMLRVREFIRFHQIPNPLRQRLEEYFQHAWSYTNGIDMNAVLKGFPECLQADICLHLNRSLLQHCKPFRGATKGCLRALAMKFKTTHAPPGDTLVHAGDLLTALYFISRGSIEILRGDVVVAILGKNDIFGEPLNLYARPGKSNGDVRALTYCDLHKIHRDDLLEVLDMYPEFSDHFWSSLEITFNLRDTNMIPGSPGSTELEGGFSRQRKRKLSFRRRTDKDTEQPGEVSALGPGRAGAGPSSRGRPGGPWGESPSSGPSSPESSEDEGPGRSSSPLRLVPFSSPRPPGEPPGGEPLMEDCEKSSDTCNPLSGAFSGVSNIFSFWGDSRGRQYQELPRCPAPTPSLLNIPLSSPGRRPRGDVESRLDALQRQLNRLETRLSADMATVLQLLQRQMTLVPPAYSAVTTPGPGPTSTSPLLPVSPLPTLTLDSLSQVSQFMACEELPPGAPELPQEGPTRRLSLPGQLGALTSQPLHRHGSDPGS
protocol.notes: hERG Manual Patch Clamp Assay
Assay type: cell-based
condition.info: human, HEK 293 cells stably expressing hERG channels, pH 7.4, 3 uM, read-out: hERG EP % Inhibition at 3 uM
Experimental: hERG Manual Patch Clamp Assay hERG electrophysiology assay: The experimental compounds were assessed for hERG activity on HEK 293 cells stably expressing hERG channels using patch clamp technique. […] First, tail currents were recorded in presence of extracellular solution alone (control) and subsequently, in extracellular solution containing increasing compound concentrations. […]
Could you give me the number in %? Just the number is fine.

Use the examples below as a reference point.
Cc1c(C(O)CN2CCc3nc(-n4cc(C#N)cn4)ncc3C2)ccc2c1COC2=O (single isomer, unassigned) [Example 56-I] :: 65
Cc1c(C(O)CN2CCc3nc(-n4ccnc4)ncc3C2)ccc2c1COC2=O (single isomer, unassigned) [Example 66-I] :: 14

Output inhibition at 3 µM of Cc1c(C(O)CN2CCc3nc(-n4cc(C#N)c5ncccc54)ncc3C2)ccc2c1COC2=O (single isomer, unassigned) [Example 68-I]
54

###

assayed.target: hROMK (Homo sapiens (Human))
Sequence (P48048 whole entry): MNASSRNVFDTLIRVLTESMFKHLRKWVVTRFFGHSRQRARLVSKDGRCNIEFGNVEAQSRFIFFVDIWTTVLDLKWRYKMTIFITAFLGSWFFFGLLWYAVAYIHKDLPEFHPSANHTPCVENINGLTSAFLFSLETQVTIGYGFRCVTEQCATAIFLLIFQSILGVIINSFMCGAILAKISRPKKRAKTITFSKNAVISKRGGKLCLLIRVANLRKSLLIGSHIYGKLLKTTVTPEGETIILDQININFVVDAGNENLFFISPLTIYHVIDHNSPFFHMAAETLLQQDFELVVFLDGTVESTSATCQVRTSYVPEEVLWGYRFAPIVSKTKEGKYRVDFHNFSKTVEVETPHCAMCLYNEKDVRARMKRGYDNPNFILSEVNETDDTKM
protocol.notes: ROMK Manual Patch Clamp Assay
condition.info: whole-cell manual patch clamp, hROMK expressing cells; read-out: hROMK EP IC50
Recorded IC50 by entry
Could you give me the number in nM? Just the number is fine.

Use the examples below as a reference point.
Cc1c(C(O)CN2CCc3nc(-n4ccc5c(C#N)cncc54)ncc3C2)ccc2c1COC2=O (single isomer, unassigned) [Example 42-I] :: 34
Cc1cn(-c2ncc3c(n2)CCN(CC(O)c2ccc4c(c2C)COC4=O)C3)cn1 (single isomer, unassigned) [Example 58-I] :: 13

Output IC50 of Cc1c(C(O)CN2CCc3nc(-n4cc(C#N)cn4)ncc3C2)ccc2c1COC2=O (single isomer, unassigned) [Example 56-I]
12

###

assayed.target: hERG (Homo sapiens (Human), UniProt Q12809)
protocol.notes: hERG Manual Patch Clamp Assay
Assay type: cell-based
condition.info: human, HEK 293 cells stably expressing hERG channels, pH 7.4, 10 uM, read-out: hERG EP % Inhibition at 10 uM
Rule: inhibition at 10 µM under 80% gives not fulfilled, otherwise fulfilled.

Cc1c(C(O)CN2CCc3nc(-n4ccnc4C)ncc3C2)ccc2c1COC2=O (single isomer, unassigned) :: not fulfilled
Cc1cn(-c2ncc3c(n2)CCN(CC(O)c2ccc4c(c2C)COC4=O)C3)cn1 (single isomer, unassigned) :: not fulfilled
Cc1c(C(O)CN2CCc3nc(-n4cc(C#N)c5ncccc54)ncc3C2)ccc2c1COC2=O (single isomer, unassigned) :: fulfilled

Confirm if inhibition at 10 µM reported for the compound Cc1c(C(O)CN2CCc3nc(-n4ccnc4)ncc3C2)ccc2c1COC2=O (single isomer, unassigned) is 80% or above.
not fulfilled

###

assayed.target: hROMK (human Kir1.1) (Homo sapiens (Human), UniProt P48048)
protocol.notes: Thallium Flux Assay
condition.info: CHO T-Rex hROMK stable cell line, 10-point concentration response; read-out: hROMK Th+ Flux IC50
test.readout: IC50 (nM)
Could you give me the number in nM? Just the number is fine.

Use the examples below as a reference point.
Cc1c(C(O)CN2CCc3nc(N4CCc5c(C#N)cccc54)ncc3C2)ccc2c1COC2=O (single isomer, unassigned) [Example 65-II] :: 376
Cc1c(C(CO)N2CCc3cc(Nc4ccc(C#N)c(F)c4)ccc3C2)ccc2c1COC2=O (single isomer, unassigned) [Example 33-I] :: 490
Cc1c(C(O)CN2CCc3nc(Nc4ccc5oc(=O)n(C)c5c4)ncc3C2)ccc2c1COC2=O (single isomer, unassigned) :: 1030

Output IC50 of Cc1c(C(CO)N2CCc3cc(Nc4ccc(C#N)c(F)c4)ccc3C2)ccc2c1COC2=O (single isomer, unassigned) [Example 33-II]
1800

Output IC50 of Cc1c(C(CO)N2CCc3nc(-n4cc(C#N)c5ccccc54)ncc3C2)ccc2c1COC2=O (single isomer, unassigned) [Example 9-II]
1800

Output IC50 of O=C1OCc2cc(CN3CCc4cc(Nc5ccc6c(c5)COC6=O)ccc4C3)ccc21
21
